Values were extracted from ChEMBL document CHEMBL3124751.

test: Inhibition of Hepatitis C virus genotype 1b HC-J4 recombinant N-terminal histidine tagged truncated NS5B polymerase lacking C-terminal 21 amino acids assessed as standard-primer dependent elongation reaction using poly rA/U12 as template after 1 hr by liquid scintillation counting analysis; set-up: species or system Hepatitis C virus isolate HC-J4
measuredProperty: IC50 (µM)
Report as a plain number; the unit µM is understood.

Below are worked cases with known answers.
INSERT INTO assay_data (molecule, testvalue) VALUES
  ('CCOC(=O)c1cn(Cc2ccc(Cl)cc2)c2cc(N3CCN(c4ccccn4)CC3)c(N)cc2c1=O', 3.06),
  ('Nc1cc2c(=O)c(C(=O)OCc3ccc(Cl)cc3)cn(Cc3ccc(Cl)cc3)c2cc1N1CCN(c2cccc(C(F)(F)F)c2)CC1', 6.13),
  ('Nc1cc2c(=O)c(C(=O)OCc3ccc(Cl)cc3)cn(Cc3ccc(Cl)cc3)c2cc1N1CCN(c2ccccn2)CC1', 0.069);

Next up:
Return IC50 (reported value) for this compound: Nc1cc2c(=O)c(C(=O)OCc3ccc(Cl)cc3)cn(Cc3ccc(Cl)cc3)c2cc1N1CCNCC1
0.067

----------
test: Cytostatic activity against human Huh5-2 cells assessed as cell viability after 72 hrs by MTS assay; format: cell-based; settings: huh-5-2, 72 h
measuredProperty: CC50

Below are worked cases with known answers.
INSERT INTO measurements (molecule, testvalue) VALUES
  ('Nc1cc2c(=O)c(C(=O)OCc3ccc(Cl)cc3)cn(Cc3ccc(Cl)cc3)c2cc1Cl', '> 200 µM'),
  ('Nc1cc2c(=O)c(C(=O)OCc3ccc(Cl)cc3)cn(Cc3ccc(Cl)cc3)c2cc1N1CCN(c2ccccn2)CC1', '> 244 µM');

Return CC50 (reported value) for this compound: COc1cc2c(=O)c(C(=O)OCc3ccc(C)cc3)cn(Cc3ccc(C(F)(F)F)cc3F)c2cc1OC
42.3 µM

Return CC50 (reported value) for this compound: Nc1cc2c(=O)c(C(=O)OCc3ccc(Cl)cc3)cn(Cc3ccc(Cl)cc3)c2cc1N1CCNCC1
3.7 µM

Return CC50 (reported value) for this compound: Nc1cc2c(=O)c(C(=O)OCc3ccc(Cl)cc3)cn(Cc3ccc(Cl)cc3)c2cc1N1CCN(c2nc3ccccc3s2)CC1
> 169 µM

Return CC50 (reported value) for this compound: Cc1ccccc1COC(=O)c1cn(Cc2ccc(C(F)(F)F)cc2F)c2cc(Cl)c(N)cc2c1=O
10.5 µM

Return CC50 (reported value) for this compound: Cc1ccc(COC(=O)c2cn(Cc3ccc(C(F)(F)F)cc3F)c3cc(Cl)c(N)cc3c2=O)cc1
> 192 µM

----------
assay: Cytostatic activity against human Huh-9-13 cells assessed as cell viability after 72 hrs by MTS assay; type: cell-based
measuredProperty: CC50

Return CC50 (reported value) for this molecule: Nc1cc2c(=O)c(C(=O)OCc3ccc(Cl)cc3)cn(Cc3ccc(Cl)cc3)c2cc1N1CCN(c2ccccn2)CC1
> 163 µM

----------
test: Binding affinity to Hepatitis C virus truncated NS5B polymerase lacking C-terminal 21 amino acids after 5 mins by fluorescence quenching assay; parameters: species or system Hepacivirus hominis
measuredProperty: pKd
In textbook form, pKd equals minus log to base ten of the concentration in mol/L.

Return pKd (reported value) for this molecule: CN1CCN(c2cc3c(cc2N)c(=O)c(C(=O)OCc2ccc(Cl)cc2)cn3Cc2ccc(Cl)cc2)CC1
5.92

----------
assay: Selectivity index, ratio of CC50 for human Huh5-2 cells to EC50 for Hepatitis C virus genotype 1b I389luc-ubi-neo/NS3-3'/5.1 replicon in Huh 5-2 cells; assay type: toxicity, cell-based; details: read-out: Ratio CC50/EC50
selectivity ratio values, listed per item
The response must contain the number and no unit.

Below are worked cases with known answers.
INSERT INTO assay_data (molecule, testvalue) VALUES
  ('Cc1ccccc1COC(=O)c1cn(Cc2ccc(C(F)(F)F)cc2F)c2cc(Cl)c(N)cc2c1=O', 6.8),
  ('COc1cc2c(=O)c(C(=O)OCc3ccc(C)cc3)cn(Cc3ccc(C(F)(F)F)cc3F)c2cc1OC', 21),
  ('CN1CCN(c2cc3c(cc2N)c(=O)c(C(=O)OCc2ccc(Cl)cc2)cn3Cc2ccc(Cl)cc2)CC1', 1.2);

Next up:
Return selectivity ratio (reported value) for this compound: Nc1cc2c(=O)c(C(=O)OCc3ccc(Cl)cc3)cn(Cc3ccc(Cl)cc3)c2cc1N1CCNCC1
2.3

----------
assay: Inhibition of Hepatitis C virus genotype 1b HC-J4 recombinant N-terminal histidine tagged truncated NS5B polymerase lacking C-terminal 21 amino acids assessed as standard-primer dependent elongation reaction using poly rA/U12 as template after 1 hr by liquid scintillation counting analysis; parameters: species or system Hepatitis C virus isolate HC-J4
measuredProperty: pIC50
In textbook form, pIC50 equals minus log to base ten of the concentration in mol/L.

Below are worked cases with known answers.
INSERT INTO results (molecule, measuredproperty, testvalue) VALUES
  ('COc1cc2c(=O)c(C(=O)OCc3ccc(C)cc3)cn(Cc3ccc(C(F)(F)F)cc3F)c2cc1OC', 'pIC50', 6.68),
  ('Cc1ccccc1COC(=O)c1cn(Cc2ccc(C(F)(F)F)cc2F)c2cc(Cl)c(N)cc2c1=O', 'pIC50', 5.85),
  ('Cc1ccc(COC(=O)c2cn(Cc3ccc(C(F)(F)F)cc3F)c3cc(Cl)c(N)cc3c2=O)cc1', 'pIC50', 6.81),
  ('Nc1cc2c(=O)c(C(=O)OCc3ccc(Cl)cc3)cn(Cc3ccc(Cl)cc3)c2cc1N1CCN(c2nc3ccccc3s2)CC1', 'pIC50', 6.86),
  ('CN1CCN(c2cc3c(cc2N)c(=O)c(C(=O)OCc2ccc(Cl)cc2)cn3Cc2ccc(Cl)cc2)CC1', 'pIC50', 7.40);

Next up:
Return pIC50 (reported value) for this compound: Nc1cc2c(=O)c(C(=O)O)cn(Cc3ccc(Cl)cc3)c2cc1N1CCN(c2ccccn2)CC1
4.63

----------
assay: Cytostatic activity against human Huh5-2 cells assessed as cell viability after 72 hrs by MTS assay; assay type: cell-based; conditions: huh-5-2, 72 h
CC50 values, listed per item

Below are worked cases with known answers.
INSERT INTO assay_data (molecule, testvalue) VALUES
  ('Nc1cc2c(=O)c(C(=O)O)cn(Cc3ccc(Cl)cc3)c2cc1N1CCN(c2ccccn2)CC1', '> 204 µM'),
  ('CCOC(=O)c1cn(Cc2ccc(Cl)cc2)c2cc(N3CCN(c4ccccn4)CC3)c(N)cc2c1=O', '> 193 µM'),
  ('CN1CCN(c2cc3c(cc2N)c(=O)c(C(=O)OCc2ccc(Cl)cc2)cn3Cc2ccc(Cl)cc2)CC1', '2.8 µM');

Next up:
Return CC50 (reported value) for this compound: Nc1cc2c(=O)c(C(=O)OCc3ccc(Cl)cc3)cn(Cc3ccc(Cl)cc3)c2cc1N1CCN(c2cccc(C(F)(F)F)c2)CC1
> 147 µM
